# assay_summary: promoters of myeloid differentiation in arrested cells, primary screen, cell-based, GFP/MAC1 double positive, flow cytometry, validation set (AID 588685);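 further: compound exposure lasts four days before antibody staining and flow analysis; 0% = DMSO wells and 100% = 5 µM fulvestrant positive control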
# recorded_conditions: ER-HoxA9 marrow cells, hits give high values, normalized: vehicle 0, fulvestrant 100
assay_endpoint: differentiation response (%)

1. Cc1ccc2nc3c(cc(C(=O)NCC4CCCO4)c(=N)n3CCCOC(C)C)c(=O)n2c1 (centres undefined): -24.4
2. CCCCC[C@H](O)/C=C/[C@@H]1[C@@H](CCCCCCC(=O)O)[C@@H](O)C[C@H]1O: -26
3. CCOC(=O)Nc1ccc2c(c1)N(C(=O)CCN1CCOCC1)c1ccccc1S2: -8.27
4. CN(C)CCC(c1ccc(Br)cc1)c1ccccn1 (centres undefined): -1.82
5. CCCC(=O)O[C@]1(C(=O)CO)CC[C@H]2[C@@H]3CCC4=CC(=O)CC[C@]4(C)[C@H]3[C@@H](O)C[C@@]21C: -3.67
6. O=C1NC2(Nc3ccccc31)C(=O)Nc1ccc(Br)cc12 (centres undefined): 0
7. Cn1c2c(c(=O)[nH]c1=O)C(c1ccc(O)cc1)C1=C(N2)c2ccccc2C1=O (centres undefined): 11.1
8. O=C(c1ccc([N+](=O)[O-])cc1)N1CCSC1c1ccccc1Cl (centres undefined): 0.8
9. C=CCc1cc(Cl)ccc1OCCOCCN(C)C: 16.8
10. O=C(O)/C=C/c1ccc(O)c(O)c1: -0.2
11. Cn1c(=O)[nH]c(=O)c2c1ncn2CCN1CCOCC1: 62.8
12. O=P(O)(O)CP(=O)(O)O: 28.5
13. O=C(NC(CO)Cc1ccc([N+](=O)[O-])cc1)C(Cl)Cl (centres undefined): -24.4
14. COc1ccc(O)c(N)c1: -0.8
15. O=C(/C=C/c1ccco1)N1CCN(c2ccccc2)CC1: -19.6
16. O=C(CCNNC(=O)c1ccncc1)NCc1ccccc1: -24.4
17. c1ccc2c3c(c(CN4CCCCC4)cc2c1)COC3: -14.7
18. CCN(CC)CCNc1ccc(CO)c2sc3ccccc3c(=O)c12: -8.27
19. COc1ccc(/C=C\C(=O)c2c(O)ccc3c(C)cc(=O)oc23)cc1OC: -1.05
20. O=c1[nH]c(=O)n([C@H]2C[C@H](O)[C@@H](CO)O2)cc1F: -5.73
21. Cc1[nH]c2ccccc2c1C(=O)CN1CCCC1: 28.6
22. NC12CC3CC(C1)CC(O)(C3)C2: 4.15
23. O=C(C1CCCCC1)N1CC(=O)N2CCc3ccccc3C2C1 (centres undefined): 29.5
24. COc1ccc(CNC(=O)C2CCN(C(=O)[C@@H](CC(C)C)NC(=O)OC(C)(C)C)CC2)cc1: 3.03
